# target-under-test: UniProt:Q03181
# Sequence (Q03181 211-439 limits assumed): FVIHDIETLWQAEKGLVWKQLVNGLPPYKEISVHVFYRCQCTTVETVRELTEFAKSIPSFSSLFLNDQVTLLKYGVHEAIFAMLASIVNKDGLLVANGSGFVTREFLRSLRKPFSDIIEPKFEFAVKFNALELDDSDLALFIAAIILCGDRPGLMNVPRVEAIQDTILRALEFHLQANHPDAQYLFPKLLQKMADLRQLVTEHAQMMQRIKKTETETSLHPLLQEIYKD
# experiment: TR-FRET (Lanthascreen PPAR-β coactivator assay)
value-kind: EC50 (nM)
Give bare numbers, in nM.

State the recorded EC50 for this entry: CCCCCCCCCCCCCCCC(=O)OC [MePA, Methyl palmitate]
72
